These entries and their values trace back to ChEMBL document CHEMBL3745609.

measurement protocol: Terminal half life in iv dosed Wistar Hanover rat
Format: ADME, organism-based
details: in vivo, read-out: beta t1/2 (converted)
observable: half-life
// unit must come after the numeric part

Exercise: Fill blank: measured half-life of the compound Cn1cc(CNc2cc(OC[C@H]3C[C@@H]3c3ccccn3)nc3ccnn23)cn1 is ____.
Key: 4.9 h

###

# Ki values compiled below
assayed system: cAMP and cAMP-inhibited cGMP 3',5'-cyclic phosphodiesterase 10A (Homo sapiens, UniProt Q9Y233)
Sequence (Q9Y233 whole entry): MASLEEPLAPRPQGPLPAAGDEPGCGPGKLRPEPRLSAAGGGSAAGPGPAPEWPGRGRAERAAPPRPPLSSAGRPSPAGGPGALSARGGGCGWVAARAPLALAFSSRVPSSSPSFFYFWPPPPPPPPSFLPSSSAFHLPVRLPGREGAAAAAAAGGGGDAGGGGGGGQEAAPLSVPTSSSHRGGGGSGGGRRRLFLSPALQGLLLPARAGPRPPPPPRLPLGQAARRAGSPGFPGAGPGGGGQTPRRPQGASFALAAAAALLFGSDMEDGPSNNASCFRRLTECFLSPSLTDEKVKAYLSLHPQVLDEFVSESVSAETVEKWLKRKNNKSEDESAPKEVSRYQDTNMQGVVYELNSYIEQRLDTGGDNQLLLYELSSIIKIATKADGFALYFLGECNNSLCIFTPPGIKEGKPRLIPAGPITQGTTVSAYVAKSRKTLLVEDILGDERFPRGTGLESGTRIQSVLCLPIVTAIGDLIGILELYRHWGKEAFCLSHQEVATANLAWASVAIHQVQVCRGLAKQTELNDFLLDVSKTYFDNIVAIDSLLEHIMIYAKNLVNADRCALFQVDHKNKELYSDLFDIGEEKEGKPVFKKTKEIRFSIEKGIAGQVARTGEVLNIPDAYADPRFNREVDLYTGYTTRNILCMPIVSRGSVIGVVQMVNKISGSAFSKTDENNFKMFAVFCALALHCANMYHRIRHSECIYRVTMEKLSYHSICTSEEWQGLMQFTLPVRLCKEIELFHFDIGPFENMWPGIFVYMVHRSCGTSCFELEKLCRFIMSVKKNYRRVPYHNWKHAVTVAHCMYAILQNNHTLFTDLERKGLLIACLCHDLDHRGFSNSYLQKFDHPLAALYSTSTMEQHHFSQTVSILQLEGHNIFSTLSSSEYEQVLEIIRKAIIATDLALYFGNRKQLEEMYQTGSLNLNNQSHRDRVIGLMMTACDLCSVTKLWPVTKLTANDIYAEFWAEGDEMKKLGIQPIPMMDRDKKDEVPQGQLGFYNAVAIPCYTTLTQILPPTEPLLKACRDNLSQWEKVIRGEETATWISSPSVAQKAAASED
API: value field is a number in nM; no unit string.

Solved cases below.
| compound | value unit | quantitative readout |
| --- | --- | --- |
| Cc1nc(C)c(CNc2nc(OCC3CC3c3ccc4ncccc4n3)nc(Cl)c2C)s1 (racemic) | nM | 0.02 |
| Cc1nc(C)c(CNc2nc(OCC3CC3C3CCCN3C)nc(Cl)c2C)s1 (racemic; form 1) | nM | 102 |

Exercise: Fill blank: measured Ki of the compound Cc1nc(C)c(CNc2nc(NCC(C)(C)Cc3ccccn3)nc(Cl)c2C)s1 is ____.
Key: 19.1

###

measurement protocol: Plasma protein binding in iv dosed beagle dog
Type: ADME, organism-based, Canis lupus familiaris
details: read-out: PPB (converted)
observable: fraction unbound

Exercise: Fill blank: measured fraction unbound of the molecule Cn1cc(CNc2cc(OC[C@H]3C[C@@H]3c3ccccn3)nc3ccnn23)cn1 is ____.
Key: 0.06

###

# fraction unbound values compiled below
measurement protocol: Plasma protein binding in rat
Format: ADME, cell-free
details: read-out: PPB (converted)
// no unit, no text: just the number

| structure notation | quantitative readout |
| --- | --- |
| Cc1nc(C)c(CNc2cc(C3CC3)nc3ccnn23)s1 | 0.08 |

Now look at this one.
Exercise: Fill blank: measured fraction unbound of the compound Cc1c(Cl)nc(OC[C@H]2C[C@@H]2c2ccccn2)nc1NCc1cnn(C)c1 is ____.
Key: 0.01

###

measurement protocol: Plasma protein binding in iv dosed human
Format: ADME, organism-based
details: read-out: PPB (converted)
observable: fraction unbound
// no unit, no text: just the number

Exercise: Fill blank: measured fraction unbound of the compound Cn1cc(CNc2cc(OC[C@H]3C[C@@H]3c3ccccn3)nc3ccnn23)cn1 is ____.
Key: 0.07

###

measurement protocol: Plasma clearance in iv dosed rhesus monkey
Type: ADME, organism-based, Macaca mulatta
observable: clearance

Exercise: Fill blank: measured clearance of the compound Cn1cc(CNc2cc(OC[C@H]3C[C@@H]3c3ccccn3)nc3ccnn23)cn1 is ____.
Key: 8.2 mL/min/kg

###

measurement protocol: Plasma protein binding in iv dosed Wistar Hanover rat
Assay type: ADME, organism-based
details: read-out: PPB (converted)
observable: fraction unbound
// no unit, no text: just the number

| structure notation | observable | quantitative readout |
| --- | --- | --- |
| Cc1nc(C)c(CNc2nc(C3CC3)nc(Cl)c2C)s1 | fraction unbound | 0.015 |

Now look at this one.
Exercise: Fill blank: measured fraction unbound of the molecule Cn1cc(CNc2cc(OC[C@H]3C[C@@H]3c3ccccn3)nc3ccnn23)cn1 is ____.
Key: 0.09

###

System: P-gp
measurement protocol: Substrate activity at human P-gp assessed as efflux ratio of permeability across basolateral to apical over apical to basolateral side
Type: ADME
details: not told
observable: efflux ratio

Exercise: Fill blank: measured efflux ratio of the compound Cn1cc(CNc2cc(OC[C@H]3C[C@@H]3c3ccccn3)nc3ccnn23)cn1 is ____.
Key: 0.6

###

assayed system: Cytochrome P450 2C9 (Homo sapiens, UniProt P11712)
Sequence (P11712 whole entry): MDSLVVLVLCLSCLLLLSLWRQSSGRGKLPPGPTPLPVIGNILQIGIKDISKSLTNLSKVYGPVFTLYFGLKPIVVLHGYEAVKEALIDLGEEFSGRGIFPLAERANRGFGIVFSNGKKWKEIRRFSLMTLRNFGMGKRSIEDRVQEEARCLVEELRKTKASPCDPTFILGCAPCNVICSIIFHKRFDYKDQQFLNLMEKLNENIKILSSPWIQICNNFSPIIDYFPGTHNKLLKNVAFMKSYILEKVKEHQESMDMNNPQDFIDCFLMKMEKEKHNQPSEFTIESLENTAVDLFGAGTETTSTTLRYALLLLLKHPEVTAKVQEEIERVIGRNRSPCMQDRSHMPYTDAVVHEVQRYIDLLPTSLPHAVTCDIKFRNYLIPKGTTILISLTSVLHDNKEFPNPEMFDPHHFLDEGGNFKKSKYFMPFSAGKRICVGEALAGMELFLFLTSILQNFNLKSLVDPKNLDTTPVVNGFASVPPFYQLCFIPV
observable: pIC50
pIC50 is a log-scale quantity: -log10 of the concentration expressed in molar.

Exercise: Fill blank: measured pIC50 of the compound Cc1c(Cl)nc(OC[C@H]2C[C@@H]2c2ccccn2)nc1NCc1cnn(C)c1 is ____.
Key: 5.28

###

measurement protocol: Oral bioavailability in Wistar Hanover rat
Type: ADME, organism-based
details: in vivo
observable: bioavailability
// unit must come after the numeric part

Exercise: Fill blank: measured bioavailability of the molecule Cn1cc(CNc2cc(OC[C@H]3C[C@@H]3c3ccccn3)nc3ccnn23)cn1 is ____.
Key: 41%

###

assayed system: UniProt P08684
Sequence (P08684 whole entry): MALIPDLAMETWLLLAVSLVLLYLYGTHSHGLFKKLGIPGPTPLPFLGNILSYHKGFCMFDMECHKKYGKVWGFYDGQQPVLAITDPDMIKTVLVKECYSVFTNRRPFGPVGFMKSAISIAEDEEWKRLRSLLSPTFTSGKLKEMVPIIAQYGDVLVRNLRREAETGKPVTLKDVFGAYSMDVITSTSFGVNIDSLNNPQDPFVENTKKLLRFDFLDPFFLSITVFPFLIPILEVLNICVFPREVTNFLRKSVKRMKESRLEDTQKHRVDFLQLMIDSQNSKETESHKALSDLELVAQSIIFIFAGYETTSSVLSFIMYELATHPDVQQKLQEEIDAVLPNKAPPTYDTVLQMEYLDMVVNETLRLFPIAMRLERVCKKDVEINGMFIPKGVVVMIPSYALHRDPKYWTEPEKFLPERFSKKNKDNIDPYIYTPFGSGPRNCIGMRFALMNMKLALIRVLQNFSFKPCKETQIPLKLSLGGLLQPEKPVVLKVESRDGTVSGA
measurement protocol: Inhibition of CYP3A4 (unknown origin)
Format: ADME
observable: IC50

Exercise: Fill blank: measured IC50 of the compound Cc1nc(C)c(CNc2cc(C3CC3)nc3ccnn23)s1 is ____.
Key: > 50 µM

###

measurement protocol: Apparent passive permeability of the compound
Type: physicochemical
details: not told
observable: Papp (nm/s)
API: value field is a number in nm/s; no unit string.

Exercise: Fill blank: measured Papp of the compound Cn1cc(CNc2cc(OC[C@H]3C[C@@H]3c3ccccn3)nc3ccnn23)cn1 is ____.
Key: 360

###

measurement protocol: Plasma clearance in iv dosed beagle dog
Format: ADME, organism-based, Canis lupus familiaris
observable: clearance (mL/min/kg)
API: value field is a number in mL/min/kg; no unit string.

Exercise: Fill blank: measured clearance of the compound Cn1cc(CNc2cc(OC[C@H]3C[C@@H]3c3ccccn3)nc3ccnn23)cn1 is ____.
Key: 3.9

###

Test system: P-gp
measurement protocol: Substrate activity at rat P-gp assessed as efflux ratio of permeability across basolateral to apical over apical to basolateral side
Type: ADME
details: not told
observable: efflux ratio
// no unit, no text: just the number

Exercise: Fill blank: measured efflux ratio of the compound Cn1cc(CNc2cc(OC[C@H]3C[C@@H]3c3ccccn3)nc3ccnn23)cn1 is ____.
Key: 0.7

###

# pKi values compiled below
assayed system: cAMP and cAMP-inhibited cGMP 3',5'-cyclic phosphodiesterase 10A (Homo sapiens)
measurement protocol: Inhibition of PDE10A (unknown origin) by IMAP assay
pKi is a log-scale quantity: -log10 of the concentration expressed in molar.

Solved cases below.
| molecule | pKi |
| --- | --- |
| Cc1nc(C)c(CNc2nc(CCCOc3ccccn3)nc(Cl)c2C)s1 | 8.51 |
| Cc1nc(C)c(CNc2nc(OCC#Cc3ccccn3)nc(Cl)c2C)s1 | 8.51 |
| Cc1nc(C)c(CNc2nc(OC[C@H]3C[C@H]3c3ccccn3)nc(Cl)c2C)s1 (racemic) | 7.81 |
| Cc1ccnc(C2CC2COc2nc(Cl)c(C)c(NCc3sc(C)nc3C)n2)c1 (centres undefined) | 11.00 |
| Cc1nc(C)c(CNc2nc(OC[C@H]3C[C@@H]3c3ccccn3)nc(Cl)c2C)s1 (racemic) | 10.15 |

Exercise: Form field - read-out: pKi; system: cAMP and cAMP-inhibited cGMP 3',5'-cyclic phosphodiesterase 10A (Homo sapiens); submitted item: Cc1nc(C)c(CNc2nc(OCCCc3ccccn3)nc(Cl)c2C)s1
Key: 8.96

Exercise: Next molecule: Cc1nc(C)c(CNc2nc(OCC3CC3c3ccc4ccccc4n3)nc(Cl)c2C)s1 (racemic)
Key: 11.00

Exercise: Next molecule: Cc1nc(C)c(CNc2cc(Cl)nc3ccnn23)s1
Key: 7.24

Exercise: Next molecule: Cc1nc(C)c(CNc2nc(CC[C@H]3C[C@@H]3c3ccccn3)nc(Cl)c2C)s1 (racemic)
Key: 8.77

Exercise: Next molecule: Clc1cc(Cl)n2nccc2n1
Key: 4.62

Exercise: Next molecule: Cc1nc(C)c(CNc2nc(OCC3CC3c3ncccn3)nc(Cl)c2C)s1 (racemic)
Key: 8.44

Exercise: Next molecule: Cc1nc(C)c(CNc2nc(OCC3CC3c3cc4ccccn4n3)nc(Cl)c2C)s1 (racemic)
Key: 11.22

###

Observed Ki for cAMP and cAMP-inhibited cGMP 3',5'-cyclic phosphodiesterase 10A (Homo sapiens), reported per entry below.
API: value field is a number in nM; no unit string.

Solved cases below.
| molecule | observable | quantitative readout |
| --- | --- | --- |
| Cc1nc(C)c(CNc2nc(CCC#Cc3ccccn3)nc(Cl)c2C)s1 | Ki | 1.1 |
| Cc1nc(C)c(CNc2nc(OC[C@H]3C[C@@H]3c3ccccn3)nc(Cl)c2C)s1 | Ki | 0.03 |
| Cc1nc(C)c(CNc2nc(OC[C@@H]3C[C@H]3c3ccccn3)nc(Cl)c2C)s1 | Ki | 8.6 |
| Cn1cc(CNc2cc(OC[C@H]3C[C@@H]3c3ccccn3)nc3ccnn23)cn1 | Ki | 0.23 |

Exercise: Fill blank: measured Ki of the molecule Cc1nc(C)c(CNc2nc(OCC3CC3c3cn(C)cn3)nc(Cl)c2C)s1 (racemic) is ____.
Key: 0.02

Exercise: Next molecule: Cc1nc(C)c(CNc2nc(CCCCc3ccccn3)nc(Cl)c2C)s1
Key: 0.4

Exercise: Next molecule: Cc1nc(C)c(CNc2nc(NCCCc3ccccn3)nc(Cl)c2C)s1
Key: 4.1

Exercise: Next molecule: Cc1nc(C)c(CNc2nc(OCC3CC3c3cncn3C)nc(Cl)c2C)s1 (configuration not stated)
Key: 20.3

Exercise: Next molecule: Cc1nc(C)c(CNc2nc(OCC3CC3c3ccncc3)nc(Cl)c2C)s1 (configuration not stated)
Key: 8.3
